Target: FGFR2 V564F (Homo sapiens, UniProt P21802, V564F)
Construct: P41212 (Transcription factor ETV6)
Sequence (P21802 481-770 V564F limits assumed): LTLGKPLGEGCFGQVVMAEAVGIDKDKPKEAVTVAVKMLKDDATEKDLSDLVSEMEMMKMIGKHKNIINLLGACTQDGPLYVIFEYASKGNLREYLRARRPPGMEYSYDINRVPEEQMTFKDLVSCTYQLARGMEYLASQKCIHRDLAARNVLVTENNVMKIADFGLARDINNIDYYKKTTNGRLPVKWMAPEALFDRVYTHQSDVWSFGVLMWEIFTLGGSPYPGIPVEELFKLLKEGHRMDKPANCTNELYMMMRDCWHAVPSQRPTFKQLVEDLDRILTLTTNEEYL
Test: Cell proliferation assay for Tel-FGFR2 V564F in BaF3
Assay type: cell-based
Conditions: BaF3 cells expressing FGFR2 V564F fusion, 48 hrs, CellTiter Glo
Measured quantity: IC50

Prompt: // lookup IC50 | system=FGFR2 V564F (Homo sapiens, UniProt P21802, V564F) | key= C=CC(=O)N1CC[C@H](n2cc(C#Cc3ccc4oc(C)nc4c3)c3c(N)ncnc32)C1 [Example 2]
Response: ≤ 0.5 nM

Prompt: Same again, this time with C=CC(=O)N1CC[C@H](n2nc(C#Cc3cc4nc(C5(F)CC5)oc4cc3F)c3c(N)ncnc32)C1 [Example 36]
Response: ≤ 0.5 nM

Prompt: Subsequent entry: C=CC(=O)N1CC[C@H](n2cc(C#Cc3ccc4oc(C5CC5)nc4c3)c3c(N)ncnc32)C1 [Example 1]
Response: 0.5 to 5 nM

Prompt: Repeat for the following molecule: C=CC(=O)N1CC[C@H](n2cc(C#Cc3ccc4oc(C(F)F)nc4c3)c3c(N)ncnc32)C1 [Example 71]
Response: 0.5 to 5 nM

---

Parameter IC50: see the listing below.
Biological target: FGFR2 V564L (Homo sapiens, UniProt P21802, V564L)
Construct: P41212 (Transcription factor ETV6)
Sequence (P21802 481-770 V564L limits assumed): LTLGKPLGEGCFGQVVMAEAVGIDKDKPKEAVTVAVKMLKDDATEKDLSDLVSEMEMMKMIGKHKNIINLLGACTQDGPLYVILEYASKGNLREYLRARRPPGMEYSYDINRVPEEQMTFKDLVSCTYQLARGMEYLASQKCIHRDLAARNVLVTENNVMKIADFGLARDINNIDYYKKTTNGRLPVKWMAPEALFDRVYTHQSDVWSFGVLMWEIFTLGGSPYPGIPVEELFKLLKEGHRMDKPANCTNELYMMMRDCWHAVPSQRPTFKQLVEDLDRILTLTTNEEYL
Experiment: Cell proliferation assay for Tel-FGFR2 V564L in BaF3
Type: cell-based
Settings: BaF3 cells expressing FGFR2 V564L fusion, 48 hrs, CellTiter Glo
Method: By transfection, cell strains of the intracellular kinase domain fusion protein of TEL-FGFR2 WT or the intracellular domain fusion proteins containing FGFR2 V564, V564F, V564L, N549K and K659M mutations were stably expressed in Baf cells. […] Then relative light units (RLUs) were measured on a microplate reader with a luminescence detection module. […]

See these solved cases before continuing.
Molecule	Result
C=CC(=O)N1CC[C@H](n2cc(C#Cc3ccc4oc(CC)nc4c3)c3c(N)ncnc32)C1 [Example 3]	0.5 to 5 nM
C=CC(=O)N1C[C@@H](n2nc(C#Cc3c(F)cc4sc(C5CC5)nc4c3F)c3c(N)ncnc32)C[C@@H]1COC [Example 68]	≤ 0.5 nM
C=CC(=O)N1CC[C@H](n2nc(C#Cc3ccc4sc(C)nc4c3)c3c(N)ncnc32)C1 [Example 52]	5 to 50 nM
C=CC(=O)N1CC[C@H](n2cc(C#Cc3ccc4oc(C)nc4c3)c3c(N)ncnc32)C1 [Example 2]	0.5 to 5 nM

Prompt: So what does the record say about IC50 for C=CC(=O)N1CC[C@H](n2nc(C#Cc3ccc4oc(C5CC5)nc4c3)c3c(N)ncnc32)C1 [Example 20] ?
Response: 0.5 to 5 nM

Prompt: Please answer likewise for C=CC(=O)N1CC[C@H](n2nc(C#Cc3cnc4sc(C)nc4c3)c3c(N)ncnc32)C1 [Example 41]
Response: 0.5 to 5 nM

Prompt: Then C=CC(=O)N1CC[C@H](n2nc(C#Cc3cc4nc(C)sc4cc3F)c3c(N)ncnc32)C1 [Example 57] ?
Response: 0.5 to 5 nM

Prompt: Next record, please: C=CC(=O)N1CC[C@H](n2nc(C#Cc3cc4nc(C5CC5)sc4cc3F)c3c(N)ncnc32)C1 [Example 59]
Response: 0.5 to 5 nM

Data origin, for the record: patent US20230303575A1
